B1: GST-tagged USP8 MIT domain (1-142) [human] / DBP 116-131 peptide, cellulose-bound (SPOT array) [human] (parent complex)
chain 1: MPAVASVPKELYLSSSLKDLNKKTEVKPEKISTKSYVHSALKIFKTAEECRLDRDEERAYVLYMKYVTVYNLIKKRPDFKQQQDYFHSILGPGNIKKAVEEAERLSESLKLRYEEAEVRKKLEEKDRQEEAQRLQQKRQETG
chain 2: YVDLDAFLLEHGLPPS

- Variants of: B1
- assay-info: SPOT array alanine scanning; read off a plot
recorded-metric: screen value

Worked examples follow.
Fill blank: measured screen value of the variant chain 2 YVDLDAFLAEHGLPPS is ____.
~98%

Param item = chain 2 YVDLDAFLLEHALPPS ; retrieve measured screen value.
~-87%

Any idea what screen value was measured for chain 2 YVDLDGFLLEHGLPPS ?
~-38%

// lookup screen value for chain 2 YVDLDAFLLAHGLPPS
~-94%

Would you mind telling me what screen value value was observed for chain 2 YVDLDAFLLEHGAPPS ?
~-22%

Next:
May I ask what screen value has been recorded for chain 2 YVDLDAFALEHGLPPS ?
~-20%

// screen value lookup, key: chain 2 YADLDAFLLEHGLPPS
~98%

Data provenance: paper PMC12057046
